- ASSAY METHOD TEXT: 14-day oral toxicity study in Sprague Dawley rats
- Assay type: in vivo, rat
- RUN PARAMETERS: Sprague-Dawley, rat, in vivo; SD rats, oral gavage once daily for 14 days; read-out: No-observed-adverse-effect level (NOAEL)
MEASUREMENT KIND: NOAEL at 14 days (mg/kg/day)
Quick reminder: number only, in mg/kg/day, skip the unit.

Please give the measured NOAEL at 14 days for this compound: N#Cc1ccc(N2CCC[C@@H]2[C@@H](O)C(F)(F)F)cc1C(F)(F)F
700

* * *

- ASSAY METHOD TEXT: Pharmacokinetics in Sprague Dawley rats, repeat oral administration for 15 days
- Format: in vivo, rat
- RUN PARAMETERS: female, Sprague-Dawley, rat, plasma, po, 1 mg/kg, SD rats, oral gavage once daily, Day 15, 1 mg/kg, Female
MEASUREMENT KIND: Cmax (ng/mL)
Quick reminder: number only, in ng/mL, skip the unit.

Please give the measured Cmax for this compound: N#Cc1ccc(N2CCC[C@@H]2[C@@H](O)C(F)(F)F)cc1C(F)(F)F [Compound 102]
45

* * *

- ASSAY METHOD TEXT: Pharmacokinetics in ovariectomized female rats (plasma, Day 14)
- Format: in vivo, rat
- RUN PARAMETERS: rat, plasma; OVX female rats, PO, Day 14, 0.3 mg/kg, mean ± SD of n = 4
I'd be grateful if you could share measured Tmax for these entries.
Quick reminder: number only, in min, skip the unit.

Please give the measured Tmax for this molecule: N#Cc1ccc(N2CCC[C@@H]2[C@@H](O)C(F)(F)F)cc1C(F)(F)F
30

Please give the measured Tmax for this molecule: C[C@](O)(COc1ccc(C#N)cc1)C(=O)Nc1ccc(C#N)c(C(F)(F)F)c1
36

* * *

- ASSAY METHOD TEXT: Pharmacokinetics in ovariectomized female rats (plasma, Day 14)
- Format: in vivo, rat
- RUN PARAMETERS: female, rat, plasma, po, 0.03 mg/kg, OVX female rats, PO, Day 14, 0.03 mg/kg, mean ± SD of n = 4; read-out: AUC6
MEASUREMENT KIND: AUC (ng·h/mL)
Quick reminder: number only, in ng·h/mL, skip the unit.

Please give the measured AUC for this compound: N#Cc1ccc(N2CCC[C@@H]2[C@@H](O)C(F)(F)F)cc1C(F)(F)F
56

Please give the measured AUC for this compound: C[C@](O)(COc1ccc(C#N)cc1)C(=O)Nc1ccc(C#N)c(C(F)(F)F)c1
125

* * *

- ASSAY METHOD TEXT: Pharmacokinetics in Sprague Dawley rats, repeat oral administration for 15 days
- Type: in vivo, rat
- RUN PARAMETERS: female, Sprague-Dawley, rat, plasma, po, 10 mg/kg, SD rats, oral gavage, Day 1, 10 mg/kg, Female
MEASUREMENT KIND: Tmax (h)
Quick reminder: number only, in h, skip the unit.

Please give the measured Tmax for this compound: N#Cc1ccc(N2CCC[C@@H]2[C@@H](O)C(F)(F)F)cc1C(F)(F)F [Compound 102]
1.4

* * *

- ASSAY METHOD TEXT: Pharmacokinetics in ovariectomized female rats (plasma, Day 14)
- Assay type: in vivo, rat
- RUN PARAMETERS: rat, plasma; OVX female rats, PO, Day 14, 0.03 mg/kg, mean ± SD of n = 4
I'd be grateful if you could share measured Cmax for these entries.
Quick reminder: number only, in ng/mL, skip the unit.

Please give the measured Cmax for this compound: N#Cc1ccc(N2CCC[C@@H]2[C@@H](O)C(F)(F)F)cc1C(F)(F)F
39

Please give the measured Cmax for this compound: C[C@](O)(COc1ccc(C#N)cc1)C(=O)Nc1ccc(C#N)c(C(F)(F)F)c1
35
